Measured values drawn from paper PMC8540349 for this set.

target: recombinant PsauGOBP1; test: Fluorescence competitive-binding assay with 1-NPN as probe; details: 1-NPN displacement, Tris-HCl pH 7.4, 25 °C; mean ± SE, three experiments; read-out: IC50 (concentration of ligand halving the initial fluorescence value)
In this section, each of the molecules is paired with its reported IC50.

molecule: CC(=O)OCCc1ccccc1 [Phenylethyl acetate]
IC50: > 20 µM

Check recombinant PsauGOBP1 data and give IC50 for CC/C=C\CC1=C(C)CCC1=O [(Z)-jasmone] .
> 20 µM

----------
Parameter: pKd. Scope: all listed entries.
target: recombinant PsauGOBP1; test: Fluorescence competitive-binding assay with 1-NPN as probe; set-up: species or system Peridroma saucia; conditions: calculated from IC50 with KD = [IC50]/1 + [1-NPN]/K1-NPN; mean ± SE; read-out: KD (calculated dissociation constant)
FYI, pKd means -log10 of a concentration in mol per litre.

compound: CC/C=C\CCO [(Z)-3-hexen-1-ol]
pKd: 5.07

compound: CC/C=C\CCOC(C)=O [(Z)-3-hexenyl acetate]
pKd: 5.40

compound: CC(C)=CCC/C(C)=C/CC/C(C)=C/CO
pKd: 5.19

compound: CCCCCCCCC=O
pKd: 5.17

compound: CC(C)=CCCC(C)=CC=O (mixture of isomers)
pKd: 5.25

Lab note: recombinant PsauGOBP1 assay, enter pKd for O=Cc1ccccc1 here
5.03

----------
target: recombinant PsauGOBP1; assay: Affinity of fluorescent probe 1-NPN to PsauGOBP1 (direct titration); parameters: species or system Peridroma saucia; settings: direct titration 2–16 µM 1-NPN, excitation 337 nm; single binding site; means of three replicates; read-out: dissociation constant of 1-NPN
experimental_readout: pKd
A value of pKd is the negative decimal logarithm of a concentration given in moles per litre.

Please supply the value of reported pKd for the item c1ccc(Nc2cccc3ccccc23)cc1
5.72

----------
Fluorescence (%) at Maximum Concentration values by entry
test system: recombinant PsauGOBP1; experiment: Fluorescence competitive-binding assay with 1-NPN as probe; set-up: species or system Peridroma saucia; details: host plant volatiles; maximum concentration 16 (µM); remaining 1-NPN fluorescence; mean ± SE, three experiments

Worked examples, 5 compounds total:
compound: CC/C=C\CC1C(=O)CCC1CC(=O)OC (stereo not drawn) [Methyl jasmonate]
val: 80 ± 5%
//
compound: C=CC(C)=CCC=C(C)C
val: 74 ± 7%
//
compound: CC/C=C\CC1=C(C)CCC1=O [(Z)-jasmone]
val: 83 ± 5%
//
compound: CCCCCCCCCC=O
val: 85 ± 2%
//
compound: C=C1CC/C=C(\C)CC[C@@H]2[C@@H]1CC2(C)C [(E)-caryophyllene]
val: 75 ± 1%

Report Fluorescence (%) at Maximum Concentration, nothing else, for this compound: CCC/C=C/CO [(E)-2-hexen-1-ol]
67 ± 2%

----------
biological target: recombinant PsauGOBP1; assay: Fluorescence competitive-binding assay with 1-NPN as probe; conditions: 1-NPN displacement, Tris-HCl pH 7.4, 25 °C; mean ± SE, three experiments; read-out: IC50 (concentration of ligand halving the initial fluorescence value)
pIC50: −log10 of the molar value.
experimental_readout: pIC50

molecule: CCCCCC/C=C\CCCCCCCC=O
experimental_readout: pIC50
val: < 4.70
//
molecule: C=C1CCC2CC1C2(C)C (stereo not drawn)
experimental_readout: pIC50
val: < 4.70
//
molecule: C=C(C)[C@H]1CC=C(C)CC1
experimental_readout: pIC50
val: < 4.70
//
molecule: C=C1CC/C=C(\C)CC[C@@H]2[C@@H]1CC2(C)C [(E)-caryophyllene]
experimental_readout: pIC50
val: < 4.70
//
molecule: CC/C=C\CCO [(Z)-3-hexen-1-ol]
experimental_readout: pIC50
val: 4.76

Now look at this entry.
Given the molecule C=CC(=C)CCC=C(C)C , write its reported pIC50.
< 4.70

----------
tested on: recombinant PsauGOBP1; experiment: Fluorescence competitive-binding assay with 1-NPN as probe; design: species or system Peridroma saucia; conditions: host plant volatiles; maximum concentration 16 (µM); remaining 1-NPN fluorescence; mean ± SE, three experiments
# Fluorescence (%) at Maximum Concentration values compiled below
Give your result in % as a bare value.

compound: CC/C=C\CCO [(Z)-3-hexen-1-ol]
val: 58
--
compound: C=C1CCC2CC1C2(C)C (stereo not drawn) [β-pinene]
val: 100

Lab note: record Fluorescence (%) at Maximum Concentration of CC(C)=CCC/C(C)=C/CC/C(C)=C/CO [Farnesol] tested on recombinant PsauGOBP1.
47

Fetch value of Fluorescence (%) at Maximum Concentration on recombinant PsauGOBP1 for CCC/C=C/COC(C)=O [(E)-2-hexenyl acetate] .
77

Under recombinant PsauGOBP1: report Fluorescence (%) at Maximum Concentration of O=Cc1ccccc1 [Benzaldehyde] .
62

Please report Fluorescence (%) at Maximum Concentration with recombinant PsauGOBP1 for item CCC/C=C/C=O [(E)-2-hexenal] .
64

Please indicate recorded Fluorescence (%) at Maximum Concentration of C=C(C)[C@H]1CC=C(C)CC1 [D-limonene] measured with recombinant PsauGOBP1.
100

// output Fluorescence (%) at Maximum Concentration; input CC(C)=CCCC(C)=CC=O (mixture of isomers) [Citral] ; system recombinant PsauGOBP1
40

----------
target: recombinant PsauGOBP1; test: Fluorescence competitive-binding assay with 1-NPN as probe; conditions: 1-NPN displacement, Tris-HCl pH 7.4, 25 °C; mean ± SE, three experiments; read-out: IC50 (concentration of ligand halving the initial fluorescence value)
Parameter IC50: see the listing below.

Consider the worked cases shown below.
compound: C=CC(C)(O)CCC=C(C)C (stereo not shown) [Linalool]
experimental_target: recombinant PsauGOBP1
IC50: > 20 µM
--
compound: CC(C)=CCC/C(C)=C/CC/C(C)=C/CO [Farnesol]
experimental_target: recombinant PsauGOBP1
IC50: 13.1 µM
--
compound: COC(=O)c1ccccc1O [Methyl salicylate]
experimental_target: recombinant PsauGOBP1
IC50: > 20 µM
--
compound: CCCC/C=C\CCCCCCCCCCOC(C)=O [Z11-16: Ac]
experimental_target: recombinant PsauGOBP1
IC50: > 20 µM
--
compound: CCC/C=C/CO [(E)-2-hexen-1-ol]
experimental_target: recombinant PsauGOBP1
IC50: > 20 µM
--
compound: CCC/C=C/COC(C)=O [(E)-2-hexenyl acetate]
experimental_target: recombinant PsauGOBP1
IC50: > 20 µM
--
compound: CC(C)=CCCC(C)=CC=O (mixture of isomers) [Citral]
experimental_target: recombinant PsauGOBP1
IC50: 11.5 µM
--
compound: CCCCCCCCC=O [Nonanal]
experimental_target: recombinant PsauGOBP1
IC50: 13.9 µM

State its IC50 for this compound: CCCC/C=C\CCCCCCCCOC(C)=O [Z9-14: Ac]
> 20 µM

// fetch IC50 given entry CCCC/C=C\CCCCCCCCCCO [Z11-16: OH]
> 20 µM

Note IC50 for the compound shown: CC/C=C\CCOC(C)=O [(Z)-3-hexenyl acetate]
8.2 µM

# return recorded IC50 for entry CCCCCCCCCC=O [Decanal]
> 20 µM

Provide only the value of recorded IC50 for CCCC/C=C\CCCCCCCCCC=O [Z11-16: Ald]
> 20 µM

----------
test system: recombinant PsauGOBP1; assay: Fluorescence competitive-binding assay with 1-NPN as probe; set-up: species or system Peridroma saucia; conditions: host plant volatiles; maximum concentration 16 (µM); remaining 1-NPN fluorescence; mean ± SE, three experiments
experimental_readout: Fluorescence (%) at Maximum Concentration
Write the number in % without appending the unit.

Illustrative cases are given below, each with its answer.
compound: C=CC(=C)CC/C=C(\C)CCC=C(C)C [(E)-β-farnesene]
unit_text: %
val: 87

compound: CCCCCCCO [Heptanol]
unit_text: %
val: 65

compound: C=CC(=C)CCC=C(C)C [β-myrcene]
unit_text: %
val: 94

compound: CC/C=C\CCOC(C)=O [(Z)-3-hexenyl acetate]
unit_text: %
val: 19

compound: CCCCCCCCCCCCO [Dodecanol]
unit_text: %
val: 75

Could you please provide reported Fluorescence (%) at Maximum Concentration for CCCCCCCC=O [Octanal] ? Thanks!
61

Give the measured Fluorescence (%) at Maximum Concentration for C=CC(C)(O)CCC=C(C)C (stereo not drawn) [Linalool]
79

Give the reported Fluorescence (%) at Maximum Concentration for this compound. COC(=O)c1ccccc1O [Methyl salicylate]
73

Please look at this compound and report its Fluorescence (%) at Maximum Concentration: CCCCCCCCC=O [Nonanal]
50

For the compound CC(=O)OCCc1ccccc1 [Phenylethyl acetate] , give its measured Fluorescence (%) at Maximum Concentration value.
64

Provide only the value of recorded Fluorescence (%) at Maximum Concentration for c1ccc2[nH]ccc2c1 [Indole]
70

Identify measured Fluorescence (%) at Maximum Concentration corresponding to CC/C=C\C[C@H]1C(=O)CC[C@@H]1CC(=O)O [Jasmonic acid]
68
